- ASSAYED_TARGET: HLA-B*58:01
- TEST_SUMMARY: IEDB peptide-MHC binding, purified MHC/competitive/fluorescence; filed as Kd, often an IC50 or EC50 that approximates it; bounds were set here for any values at or beyond the usual limits of such assays
- MEASUREMENT_SETUP: source organism: Vibrio vulnificus YJ016
pKd: −log10 of the molar value.
ENDPOINT_LABEL: pKd

Prompt line: Reported pKd for SVFELSNFA : what is it?
Response line: ≤ 5.30

----------
- ASSAYED_TARGET: HLA-A*66:01
- TEST_SUMMARY: IEDB peptide-MHC binding, purified MHC/competitive/fluorescence; filed as Kd, often an IC50 or EC50 that approximates it; bounds were set here for any values at or beyond the usual limits of such assays
- MEASUREMENT_SETUP: source organism: Vibrio vulnificus YJ016
pKd: −log10 of the molar value.
ENDPOINT_LABEL: pKd

Prompt line: Record request: pKd value, item SVFELSNFA
Response line: ≤ 5.30
